system: P12-Ichikawa; assay: AUC of viability dose-response curve (% viability x log10 dose units); higher = less sensitive; details: RPMI 5 mM glucose + 10% dialyzed FBS; 48 h
measurement-type: AUC of viability dose-response curve

COc1cc(C(=O)NC2CCN(C)CC2)ccc1Nc1ncc2c(n1)N(C1CCCC1)CCC(=O)N2C(C)C	411
Cc1ccc(C(=O)Nc2cccc(C(F)(F)F)c2)cc1Nc1nc(-c2cccnc2)nc2c1cnn2C	416
C[C@@H]1[C@H]\2[C@H](O)[C@H]3[C@H](N(C)C)\C(=C(C(N)=O)/C(=O)[C@@]3(O)\C(=C2C(=O)C4=C(O)C=CC=C14)O)O	462
Nc1nc(F)nc2c1ncn2[C@@H]1O[C@H](COP(=O)(O)O)[C@@H](O)[C@@H]1O	454
CN(C)c1nc(Cc2ccc(NC(=O)c3ccc(C(F)(F)F)cc3)cc2)nc(N(C)C)c1CC(=O)O	461
Clc2cccc(Cl)c2\N=C1/NCCN1	452
NC1=NC(=O)N2CC12 (centres undefined)	349
CC(C(C)N1CC(=O)NC(=O)C1)N1CC(=O)NC(=O)C1 (centres undefined)	447
N#C/C(=C(/N)Sc1ccc(N)cc1)c1ccccc1C(F)(F)F	436

* * *

# Lookup of reported cell viability keyed by entry
test system: SEM cells; test: cell viability relative to DMSO control; higher = less cytotoxic; details: HPLM + 10% dialyzed FBS; 48 h; 0.0211 µM
measurement-type: cell viability

Nc1ccc(C(=O)Nc2cccc(-c3nc(N4CCOCC4)c4oc5ncccc5c4n3)c2)cn1	113%
O=C(O)c1ccc(O)c2ncc(N3CCOCC3)cc12	110%
O=C(/C=C/c1ccc(/C=C/C(=O)Nc2ccc(C3=NCCN3)cc2)cc1)Nc1ccc(C2=NCCN2)cc1	115%
NC(=O)c1cccc(-c2cc(Nc3ccc(OC(F)(F)F)cc3)ncn2)c1	91.9%
O=C(c1cncc(Br)c1)N1CCC(N2CCCC2)CC1	106%

* * *

system: NOMO1; test: cell viability relative to DMSO control; higher = less cytotoxic; details: RPMI 5 mM glucose + 10% FBS; 48 h; 0.0632 µM
# Lookup of reported cell viability keyed by entry
measurement-type: cell viability (%)

CC1(C)SCCN([S+](=O)([O-])c2ccc(OCC#CCO)cc2)[C@H]1C(=O)NO	104
CCNC(=O)Nc1ccc(Oc2ncnc(N)c2/C=N/OC)cc1Cl	119
CO[C@@H](C(=O)N1Cc2[nH]nc(NC(=O)c3ccc(N4CCN(C)CC4)cc3)c2C1)c1ccccc1	81.5
Nc1nc(F)nc2c1ncn2[C@@H]1O[C@H](COP(=O)(O)O)[C@@H](O)[C@@H]1O	125
CN1CCc2c(c3ccccc3n2Cc2ccc(C(=O)NO)cc2)C1	74.1
Nc1ccc(C(=O)Nc2cccc(-c3nc(N4CCOCC4)c4oc5ncccc5c4n3)c2)cn1	118
CCCCc1ccc2[nH]c(NC(=O)OC)nc2c1	99.8
CN1C(=O)/C(=C(NC2=CC=C(I)C=C2F)\C3=C1\N=C/N(C[C@@H](O)CO)C3=O)F	48
O=C(c1cncc(Br)c1)N1CCC(N2CCCC2)CC1	91.4
NCCCC(N)(C(=O)O)C(F)F (stereo not given)	132
C[C@H](CCC(=O)O)[C@H]1CC[C@H]2[C@@H]3[C@H](O)C[C@@H]4C[C@H](O)CC[C@]4(C)[C@H]3CC[C@]12C	101
COc1cc2c(cc1OC)[C@@H]1Cc3ccc(OC)c(OC)c3CN1CC2	106
CCCN[C@H]1CCc2nc(N)sc2C1	92.6
CCNC(=O)CCC/C=C\C[C@@H]1[C@@H](/C=C/C(O)CCc2ccccc2)[C@@H](O)C[C@@H]1O (stereo not given in full)	108
CC(=O)N(C)C1(c2ccccc2)CCN(CCC[C@]2(c3ccc(Cl)c(Cl)c3)CCCN(C(=O)c3ccccc3)C2)CC1	128
CCCCCCNC(=O)N1\C=C(F)/C(=O)NC1=O	109
COc1cc(NCc2ccc3nc(N)nc(N)c3c2C)cc(OC)c1OC	84.7
Oc1ccc(OCc2ccccc2)cc1	114
CCC(CCCC)COC(=O)C(\C#N)=C(\c1ccccc1)c2ccccc2 (stereo not given)	101
Cc1nc(-c2ccc(OCC(C)C)c(C#N)c2)sc1C(=O)O	137

* * *

# Lookup of reported cell viability keyed by entry
tested on: P12-Ichikawa; test: cell viability relative to DMSO control; higher = less cytotoxic; details: HPLM + 10% dialyzed FBS; 48 h; 5.12 µM
measurement-type: cell viability (%)

CNc1nc(-c2ccc3c(N)n[nH]c3c2)cc(N2C[C@@H](C(=O)NC3CCCCC3)CC[C@H]2C)n1	75.3
C[C@H](NC(=O)Cc1cc(F)cc(F)c1)C(=O)N[C@H](C(=O)OC(C)(C)C)c1ccccc1	86.9
CNC(=O)c1ccc2c(c1)NC(=O)/C2=C(\Nc1cccc(CN(C)C)c1)c1ccccc1	35.8
Clc2cccc(Cl)c2\N=C1/NCCN1	116

* * *

# Lookup of reported cell viability keyed by entry
test system: NOMO1; assay: cell viability relative to DMSO control; higher = less cytotoxic; conditions: HPLM + 10% dialyzed FBS; 48 h; 5.12 µM
measurement-type: cell viability (%)

Cc1cc(Nc2cc(N3CCN(C)CC3)nc(/C=C/c3ccccc3)n2)n[nH]1	14.8
CCN(CC)CCNC(=O)c1c(C)[nH]c(/C=C2\C(=O)Nc3ccc(F)cc32)c1C	29.1
OC(=O)\C1=C\N(C2CC2)C3=CC(=C(F)C=C3C1=O)N4CCNCC4	64.4
CN(C)CCCC1(c2ccc(F)cc2)OCc2cc(C#N)ccc21 (stereo unspecified)	68.4
C[C@H](CCC(=O)O)[C@H]1CC[C@H]2[C@@H]3[C@H](O)C[C@@H]4C[C@H](O)CC[C@]4(C)[C@H]3CC[C@]12C	101
OC[C@H]1O[C@H](C[C@@H]1O)N2/C=C(C(=O)NC2=O)/C(F)(F)F	69.7
Oc1cc(-c2nc(-c3ccccc3)[nH]c2-c2ccncc2)ccc1Cl	78.8
CC1(C)SCCN([S+](=O)([O-])c2ccc(OCC#CCO)cc2)[C@H]1C(=O)NO	99.6
Cc1cc(Nc2ncc3c(n2)N(C)C(=O)N(c2cc(NC(=O)c4cccc(C(F)(F)F)c4)ccc2C)C3)n(C)n1	32.2
COc1ccc(F)c(F)c1C(=O)c1cnc(NC2CCN([S+](C)(=O)[O-])CC2)nc1N	45.6
C[S+](=O)([O-])Oc1ccc2c(NC(N)=O)c(C(=O)c3ccc(Cl)cc3Cl)oc2c1	105
Cc1nc(-c2ccc(OCC(C)C)c(C#N)c2)sc1C(=O)O	140
Cc1cn2cc(C(=O)N(C)CCO)cc(N[C@@H]3CCOc4cccc(C)c43)c2n1	119
c1cc(-c2cnn3cc(-c4ccc(OCCN5CCCCC5)cc4)cnc23)ccn1	76.1
CN(C)C/C=C/C(=O)Nc1ccc(C(=O)Nc2cccc(Nc3ncc(Cl)c(-c4c[nH]c5ccccc45)n3)c2)cc1	4.42
O=C(O)c1ccc(O)c2ncc(N3CCOCC3)cc12	97.2

* * *

test system: NOMO1; test: AUC of viability dose-response curve (% viability x log10 dose units); higher = less sensitive; details: HPLM + 10% dialyzed FBS; 48 h
The label is true for AUC of viability dose-response curve below 400 and false for AUC of viability dose-response curve equal to or exceeding 400.

NC1=NC(=O)N2CC12 (centres undefined)	true
CC(=O)OCC(=O)[C@@]1(O)CC[C@H]2[C@@H]3CCC/4=C/C(=O)CC[C@]4(C)[C@H]3C(=O)C[C@]12C	false
CC(C)(N)c1ccc(-c2nc3ccccc3nc2-c2ccccc2)cc1	true
CCNC(=O)Nc1ccc(Oc2ncnc(N)c2/C=N/OC)cc1Cl	false
OC1=CC=C(C=C1)C/2=C/C3=C(OC2)C=C(O)C=C3	true
Cc1cc(NC(=O)Nc2ccc(N(C)C)cc2)c2cc(F)cc(F)c2n1	false
Nc1cccc([S+](=O)([O-])N2CCCN([S+](=O)([O-])c3ccc4c(c3)OCCO4)CC2)c1	false
Cc1cc(Nc2ncc3c(n2)N(C)C(=O)N(c2cc(NC(=O)c4cccc(C(F)(F)F)c4)ccc2C)C3)n(C)n1	true
CN(C)c1nc(Cc2ccc(NC(=O)c3ccc(C(F)(F)F)cc3)cc2)nc(N(C)C)c1CC(=O)O	false

* * *

test system: NOMO1; assay: cell viability relative to DMSO control; higher = less cytotoxic; conditions: RPMI 5 mM glucose + 10% dialyzed FBS; 48 h; 0.569 µM
# Lookup of reported cell viability keyed by entry
measurement-type: cell viability (%)

Cc1nc(-c2ccc(OCC(C)C)c(C#N)c2)sc1C(=O)O	122
C[C@]12CC[C@H]3[C@@H](CC(=C)\C4=C\C(=O)\C=C/[C@]34C)[C@@H]1CCC2=O	94.4
CC(=O)N(C)C1(c2ccccc2)CCN(CCC[C@]2(c3ccc(Cl)c(Cl)c3)CCCN(C(=O)c3ccccc3)C2)CC1	100
Cc1cc(Nc2ncc3c(n2)N(C)C(=O)N(c2cc(NC(=O)c4cccc(C(F)(F)F)c4)ccc2C)C3)n(C)n1	115

Hey, just so you know, these numbers are from the supplement of paper PMC11451515.
